- assay_notes: Fraction unbound in 20-fold diluted brain homogenate, equilibrium dialysis
- measurement_context: Göttingen, minipig, 20-fold diluted brain homogenate, pH 7.4
measure_name: fraction unbound at 5 h, 1 μM

>  <molecule>
CN/C(=N/CCSCc1nc[nH]c1C)NC#N

>  <observed_result>
0.938

$$$$
>  <molecule>
COc1ccc2c(c1)c(CC(=O)O)c(C)n2C(=O)c1ccc(Cl)cc1

>  <observed_result>
0.358

$$$$
>  <molecule>
CC(C)NCC(O)COc1cccc2ccccc12 (stereo not drawn)

>  <observed_result>
0.35

$$$$
>  <molecule>
Clc1ccc2c(c1)N=C(N1CCNCC1)c1ccccc1N2

>  <observed_result>
0.131

$$$$
>  <molecule>
CN(C)CCC=C1c2ccccc2COc2ccccc21 [Doxepin, doxepin]

>  <observed_result>
0.248

$$$$
>  <molecule>
CNCCC(Oc1ccc(C(F)(F)F)cc1)c1ccccc1 (stereo not drawn)

>  <observed_result>
0.052

$$$$
>  <molecule>
O=C(c1ccc(F)cc1)C1CCN(CCn2c(=S)[nH]c3ccccc3c2=O)CC1

>  <observed_result>
0.229

$$$$
>  <molecule>
CCN(CC)CCNC(=O)c1cc(Cl)c(N)cc1OC [Metoclopramide, metoclopramide]

>  <observed_result>
0.878

$$$$
>  <molecule>
CN(C)CCCC1(c2ccc(F)cc2)OCc2cc(C#N)ccc21 (stereo not drawn)

>  <observed_result>
0.513

$$$$

====

Listed compounds paired with reported recovery at 29 h, 1 μM
- Test system: P-gp (human MDR1)
- assay_notes: Equilibrium distribution study (in vitro Kp,brain / Kp,uu,brain) across MDCKII-MDR1 cells, BSA apical, brain homogenate basolateral, Uni-L and Bi-L
- measurement_context: dog, pH 7.5, Recovery Uni-L, mass balance Eq. 6, Uni-L, 29 h; % printed

>  <compound>
Clc1ccc2c(c1)N=C(N1CCNCC1)c1ccccc1N2

>  <display_unit>
%

>  <recovery at 29 h, 1 μM>
62

$$$$
>  <compound>
CN(C)CCC=C1c2ccccc2COc2ccccc21 [Doxepin, doxepin]

>  <display_unit>
%

>  <recovery at 29 h, 1 μM>
59

$$$$
>  <compound>
COc1ccc2c(c1)c(CC(=O)O)c(C)n2C(=O)c1ccc(Cl)cc1

>  <display_unit>
%

>  <recovery at 29 h, 1 μM>
73

$$$$
>  <compound>
CC(C)NCC(O)COc1cccc2ccccc12 (stereo not shown)

>  <display_unit>
%

>  <recovery at 29 h, 1 μM>
25

$$$$
>  <compound>
NCC1(CC(=O)O)CCCCC1

>  <display_unit>
%

>  <recovery at 29 h, 1 μM>
85

$$$$
>  <compound>
O=C(c1ccc(F)cc1)C1CCN(CCn2c(=S)[nH]c3ccccc3c2=O)CC1

>  <display_unit>
%

>  <recovery at 29 h, 1 μM>
18

$$$$
>  <compound>
CN(C)CCCC1(c2ccc(F)cc2)OCc2cc(C#N)ccc21 (stereo not shown)

>  <display_unit>
%

>  <recovery at 29 h, 1 μM>
73

$$$$
>  <compound>
O=C1CC2(CCCC2)CC(=O)N1CCCCN1CCN(c2ncccn2)CC1

>  <display_unit>
%

>  <recovery at 29 h, 1 μM>
76

$$$$
>  <compound>
CCN(CC)CCNC(=O)c1cc(Cl)c(N)cc1OC [Metoclopramide, metoclopramide]

>  <display_unit>
%

>  <recovery at 29 h, 1 μM>
66

$$$$
>  <compound>
CN/C(=N/CCSCc1nc[nH]c1C)NC#N

>  <display_unit>
%

>  <recovery at 29 h, 1 μM>
73

$$$$
